Recorded measurements of log10(CC50 at 96 h), one per entry
# EXPERIMENT: Mammalian toxicity, MTT colorimetric
# Assay type: cell-based, murine
# DETAILS: mouse
MEASURED METRIC: log10(CC50 at 96 h) (log10 of the value in µM)

compound="COc1ccc(COc2ccc(C[C@@H]3c4cc(OC)c(OC)cc4CCN3C)cc2Oc2ccc(C[C@H]3c4cc(OC)c(OC)cc4CCN3C)cc2)cc1 [(R,S)-12]" test_value=0.43
compound="COc1cc2c(cc1OC)[C@@H](Cc1ccc(O)c(Oc3ccc(C[C@H]4c5cc(OC)c(OC)cc5CCN4C)cc3)c1)N(C)CC2 [(S,R)-13]" test_value=1.19
compound="COc1cc2c(cc1OC)[C@H](Cc1ccc(Oc3cc(C[C@H]4c5cc(OC)c(OC)cc5CCN4C)ccc3OC)cc1)N(C)CC2 [(S,S)-11, (+)-O-methylthalibrine]" test_value=1.06
compound="COc1cc2c(cc1OC)[C@@H](Cc1ccc(Oc3cc(C[C@@H]4c5cc(OC)c(OC)cc5CCN4C)ccc3O)cc1)N(C)CC2 [(R,R)-13, (–)-dauricine]" test_value=0.85
compound="COc1cc2c(cc1OC)[C@@H](Cc1ccc(OCc3ccccc3)cc1)N(C)CC2 [(R)-9d]" test_value=1.45
compound="COc1cc2c(cc1OC)[C@@H](Cc1ccc(Br)cc1)N(C)CC2 [(R)-9a]" test_value=1.94
compound="COc1cc2c(cc1OC)[C@@H](Cc1ccc(Oc3cc(C[C@@H]4c5cc(OC)c(OC)cc5CCN4C)ccc3OC)cc1)N(C)CC2 [(R,R)-11, (−)-O-methyldauricine]" test_value=1.06
compound="COc1ccc(COc2ccc(C[C@H]3c4cc(OC)c(OC)cc4CCN3C)cc2Oc2ccc(C[C@@H]3c4cc(OC)c(OC)cc4CCN3C)cc2)cc1 [(S,R)-12]" test_value=0.67
compound="COc1cc2c(cc1OC)[C@H](Cc1ccc(Br)cc1)N(C)CC2 [(S)-9a]" test_value=1.63
compound="COc1cc2c(cc1OC)[C@H](Cc1ccc(OCc3ccccc3)cc1)N(C)CC2 [(S)-9d]" test_value=0.82

----------
Readings of CC50 at 96 h for the listed molecules
# EXPERIMENT: Mammalian toxicity, MTT colorimetric
# Assay type: cell-based, murine
# DETAILS: mouse
MEASURED METRIC: CC50 at 96 h

molecule="COc1cc2c(cc1OC)[C@H](Cc1ccc(O)cc1)N(C)CC2 [(S)-10b, (+)-armepavine]" test_value="> 200 µM"
molecule="COc1cc2c(cc1OC)[C@@H](Cc1ccc(O)cc1)N(C)CC2 [(R)-10b, (–)-armepavine]" test_value="> 200 µM"
molecule="O=C(Cn1ccnc1[N+](=O)[O-])NCc1ccccc1 [benznidazole, reference compound]" test_value="> 200 µM"

Every entry's value here was drawn from paper PMC10900488.
